assay_remarks: Quantification of propolis polyphenols in human urines after ingesting the composition
Assay type: in vivo
particulars: human, in vivo; 24 h after ingestion of 8 gelatin capsules of Example 3; read-out: amount in human urines
experimental_readout: concentration at 24 h (ng/mL)

> print(dat)
                     structure.notation   experimental.readout  measured.result
1  O=c1c(O)c(-c2ccccc2)oc2cc(O)cc(O)c12  concentration at 24 h              311
